Target: delta-5-desaturase (Rattus norvegicus, UniProt Q920R3)
Construct: a rat liver microsome fraction (10 μl) diluted to 3 mg/ml with a microsome buffer; from tissue; host or cells: rat liver microsome fraction
Sequence (Q920R3 whole entry): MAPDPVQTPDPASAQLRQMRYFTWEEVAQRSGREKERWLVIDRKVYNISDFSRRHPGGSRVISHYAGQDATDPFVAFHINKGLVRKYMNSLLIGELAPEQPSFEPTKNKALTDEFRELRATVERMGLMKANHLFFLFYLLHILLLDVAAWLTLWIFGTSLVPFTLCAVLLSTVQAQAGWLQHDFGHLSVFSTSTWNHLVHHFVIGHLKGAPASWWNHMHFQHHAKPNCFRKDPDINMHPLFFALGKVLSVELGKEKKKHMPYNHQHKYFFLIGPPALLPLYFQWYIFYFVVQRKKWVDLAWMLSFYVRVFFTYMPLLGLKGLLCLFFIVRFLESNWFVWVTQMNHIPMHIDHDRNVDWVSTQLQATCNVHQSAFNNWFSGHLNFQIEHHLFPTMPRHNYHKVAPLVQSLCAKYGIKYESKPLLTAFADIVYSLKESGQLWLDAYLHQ
Test: Delta-5-desaturase inhibitory activity using rat liver microsome
Format: biochemical
Settings: test compound 10 μM
propertyName: inhibition at 10 µM (%)

{"columns": ["smiles", "inhibition at 10 µM (%)"],
 "data": [
  ["CCSc1nc2[nH]c(=O)ccc2c(=O)n1-c1ccc(OCC(F)(F)F)cc1", 99],
  ["O=c1ccc2c(=O)n(-c3ccc(OCC(F)(F)F)cc3)c(OCC(F)F)nc2[nH]1", 101],
  ["CCOc1nc2[nH]c(=O)ccc2c(=O)n1-c1ccc(OCC(F)(F)F)cc1", 99],
  ["CCSc1nc2nc(OC)ccc2c(=O)n1-c1ccc(OCC(F)(F)F)cc1", 100],
  ["COCCOc1nccc2c(=O)n(-c3ccc(OCC(F)(F)F)cc3)c(OCCOC)nc12", 91],
  ["O=c1ccc2c(=O)n(-c3ccc(OCC(F)(F)F)cc3)c(OCC(F)(F)CO)nc2[nH]1", 105],
  ["CCSc1nc2c(c(=O)n1-c1ccc(OCC(F)(F)F)cc1)SCC(=O)N2", 98],
  ["CCOc1nc2nc(OC)ccc2c(=O)n1-c1ccc(OCC(F)(F)F)cc1", 102]
]}
